System: SK-MEL-5
Experiment: NCI tumour cell line growth inhibition, 48 h
Structures can show the parent of a compound that is named as a salt. The source made the active and inactive calls. Cut-off read from the data, not from the text of the source: active = GI50 up to about 1.1 µM and inactive = higher.
Your response should consist of one outcome taken from true = active, false = inactive

For orientation, consider the following solved cases.
CCNCCCNc1c2ccccc2nc2ccccc12: true
COc1cc(CCN(C)C)cc(OC)c1OC: false
COc1ccc2c3c1OC1C(OC)(OC)C=C[C@@]4(Br)[C@@H](C2)N(CC2CC2)CC[C@]314 (stereo not given in full): false

Fill in: this test's call for CS(=O)(=O)OCCN(CCOS(C)(=O)=O)c1ccc(/C=N/c2ccc(-c3csc(COc4ccccc4)n3)cc2)cc1 is ___ false

Fill in: this test's call for O=C1CC(c2ccccc2Cl)Oc2ccccc21 (stereo not given) is ___ false

Fill in: this test's call for NCCNCCCCCCNC(=O)c1cccc2cc3ccccc3nc12 is ___ false

Fill in: this test's call for OC1COC(OCc2ccccc2)C(O)C1O (stereo not given) is ___ false

Fill in: this test's call for Cc1cc(Cl)ccc1NC(=O)/C(Cl)=C(/Cl)C(=O)O is ___ false

Fill in: this test's call for O=C(O)c1ccc(C(=O)Nc2cccc3ccccc23)c(C(=O)O)c1 is ___ false

Fill in: this test's call for COc1ccc2c(c1)C(N)=C(c1ccccc1)C2=O is ___ false

Fill in: this test's call for Nc1ccc(C(=O)NN2C(=O)C(Cl)C2c2ccc(O)cc2)cc1 (stereo not given) is ___ false

Fill in: this test's call for O=C1c2c(O)cccc2-c2nn(CCNCCO)c3ccc(NCCNCCO)c1c23 [LOSOXANTRONE HYDROCHLORIDE] is ___ true

Fill in: this test's call for N#Cc1c2c(c(N)oc1=O)C(c1ccccc1)CC(=O)N2 (stereo not given) is ___ false

Fill in: this test's call for NC(=S)N/N=C1\NC(=O)/C(=C/c2ccc3c(c2)OCO3)S1 is ___ false

Fill in: this test's call for N=c1oc2cc(O)ccc2cc1C(=O)Nc1ccccn1 is ___ false

Fill in: this test's call for O=C1c2cc3c(cc2CC12Cc1cc4c(cc1C2=O)CCC4)CCC3 is ___ false

Fill in: this test's call for Cc1ccc(NC(=O)/C=C/c2ccccc2)c(C)c1 is ___ false

Fill in: this test's call for CNC(=O)OCc1nccc2c(C)c3[nH]c4ccc(OC)cc4c3cc12 is ___ false

----------
System: BT-549
Assay: NCI tumour cell line growth inhibition, 48 h
The source made the active and inactive calls. Cut-off read from the data, not from the text of the source: active = GI50 up to about 1.1 µM and inactive = higher.
The following molecules are listed with their measured GI50 values.

COC(=O)CCCC(=O)NC1=C(NCc2ccccc2)C(=O)c2ccccc2C1=O: 28.6 µM (inactive)
CCCCCCCCCCCCCCCCNc1ccc2c(c1)OCCOCCOCCOCCO2: 3.44 µM (inactive)
CCN1C/C(=C\c2ccc(Cl)cc2)c2[nH]c(=O)c(C#N)c(-c3ccc(Cl)cc3)c2C1: > 100 µM (inactive)
O=C(Oc1ccc(S(=O)(=O)F)cc1F)c1ccccc1Cl: 39.2 µM (inactive)
Nc1ccc2nc3ccc(N)cc3[n+](-c3ccccc3)c2c1: 92.7 µM (inactive)

Tested system BT-549; GI50 recorded for COc1cc2c(cc1OC)C1CN3CCCC3C(O)C1c1cc(OC)c(OC)cc1-2 (centres undefined) was > 100 µM (inactive)

Tested system BT-549; GI50 recorded for c1ccc2c[n+](CCCC[n+]3ccc4ccccc4c3)ccc2c1 was > 100 µM (inactive)

Tested system BT-549; GI50 recorded for c1cc(Sc2nc(Sc3ccncc3)nc(Sc3ccncc3)n2)ccn1 was > 100 µM (inactive)

Tested system BT-549; GI50 recorded for Nc1nc(N)c2nc(CNc3ccc(C(=O)O)cc3)[nH]c2n1 was > 100 µM (inactive)

Tested system BT-549; GI50 recorded for CC(C)(C)c1ccc(O)c(C[N+](C)(C)C)c1 was > 100 µM (inactive)

Tested system BT-549; GI50 recorded for NC(Cc1ccc(B(O)O)cc1)C(=O)NC(CO)CO (centres undefined) was > 100 µM (inactive)

Tested system BT-549; GI50 recorded for CSC(SC)=C1C(=O)NN=C1C was > 100 µM (inactive)

Tested system BT-549; GI50 recorded for NNC(=O)CSc1nnc(CCCCCCCCc2nnc(SCC(=O)NN)o2)o1 was > 100 µM (inactive)

Tested system BT-549; GI50 recorded for CC(=O)OCC1OC(O[C@H]2C=C[C@@H](C(=O)OCc3ccccc3)n3c(=O)n(-c4ccccc4)c(=O)n32)C(OC(C)=O)C(OC(C)=O)C1OC(C)=O (some centres undefined) was 1.8 µM (inactive)

Tested system BT-549; GI50 recorded for O=C(O)c1ccc(C(=O)Nc2cccc3ccccc23)c(C(=O)O)c1 was > 100 µM (inactive)

Tested system BT-549; GI50 recorded for O=C(Nc1ccccc1C(=O)NCc1ccccc1)/C(=C/c1ccccc1)NC(=O)c1ccccc1 was > 100 µM (inactive)

----------
Tested on: 786-0
Assay: NCI tumour cell line growth inhibition, 48 h
Active and inactive are the calls of the source. No stated cut-off is given here; in the data, active = GI50 up to about 1.1 µM and inactive = higher.
The following compounds are listed with their measured GI50 values.

Worked cases, GI50 given:
CC(C)(C)OC(=O)NC(Cc1ccc(OCc2ccccc2)cn1)C(=O)NCc1ccccc1 (stereo not given): 27.1 µM (inactive)
O=c1ccc2ccccc2o1: > 100 µM (inactive)
O=Cc1c2ccccc2n2ccc3c4ccccc4[nH]c3c12: > 10 µM (inactive)
OC1C[C@H](c2ccccc2)C2(C(O)c3ccccc3C2O)[C@@H](c2ccccc2)C1 (stereo not given in full): > 100 µM (inactive)

Note: attention shifts to another entry.
Entry O=C1OC(Cc2ccccc2)(N2CCCC2=O)C1c1ccccc1 (stereo not given) — recorded GI50 = > 100 µM (inactive)

----------
Test system: COLO 205
Test: NCI tumour cell line growth inhibition, 48 h
The source made the active and inactive calls. Cut-off read from the data, not from the text of the source: active = GI50 up to about 1.1 µM and inactive = higher.
Your response should consist of one outcome taken from YES (active), NO (inactive)

For orientation, consider the following solved cases.
COC(=O)C1(CCCCCBr)CCCCCCCCCCC1=O (configuration not stated): NO
NCCC(=O)N[C@H](Cc1cc(O)c(O)c(SCC(NC(=O)CC[C@H](N)C(=O)O)C(=O)NCC(=O)O)c1)C(=O)O (some centres not stated): NO

Fill in: this test's call for N#CI1OC(C(F)(F)F)(C(F)(F)F)c2ccccc21 is ___ NO

Fill in: this test's call for COC(=O)Cc1cc(=O)n2c([nH]c3ccccc32)c1C#N is ___ NO

Fill in: this test's call for COc1ccccc1OCC(=N/NC(=O)c1ccncc1)/N=C/c1cccnc1 is ___ NO

Fill in: this test's call for CC(C)(C)c1ccc(CN2CCN(C(c3ccccc3)c3ccc(Cl)cc3)CC2)cc1 (configuration not stated) is ___ NO

----------
System: MDA-MB-435
Assay: NCI tumour cell line growth inhibition, 48 h
Activity calls are given as the source filed them. Cut-off read from the data, not from the text of the source: active = GI50 up to about 1.1 µM and inactive = higher.
The following molecules are listed with their measured GI50 values.

Worked cases, GI50 given:
COc1cc(/C=C2\CCC(C)C3=C(c4cc(OC)c(OC)c(OC)c4)C(C#N)=C(N)OC32)cc(OC)c1OC (configuration not stated): 2.76 µM (inactive)
O=[N+]([O-])c1cccc2nccc(NCCCO)c12: 11.7 µM (inactive)
CSc1ccc2c(c1)c(CCN)c(C)n2Cc1ccccc1Cl: 1.67 µM (inactive)
O=C(Cn1cc(F)c(=O)[nH]c1=O)C12CC3CC(CC(C3)C1)C2: > 100 µM (inactive)
O=CC1=C(C(=O)OC(c2ccccc2)c2ccccc2)N2C(=O)[C@@H](NC(=O)Cc3cccs3)[C@H]2SC1: 85.5 µM (inactive)
CC(=O)c1cccc(NC(=O)/C(=N\NC(=S)NN)C2C(=O)Nc3ccccc3[S+]2[O-])c1 (configuration not stated): > 100 µM (inactive)

Note: attention shifts to another entry.
Entry CC(=O)Oc1cc(Cl)c(C)c2c1[C@H]1CC[C@]3(C)[C@@H](OC(C)=O)CC[C@H]3[C@@H]1CC2 — recorded GI50 = > 100 µM (inactive)

----------
Test system: OVCAR-3
Test: NCI tumour cell line growth inhibition, 48 h
Active and inactive are the calls of the source. No stated cut-off is given here; in the data, active = GI50 up to about 1.1 µM and inactive = higher.
parameter: GI50

Worked cases, GI50 given:
Cc1c(C)c2c(c(N)c1C#N)C(=O)N(Cc1ccc(S(N)(=O)=O)cc1)C2=O: > 41.5 µM (inactive)
COC(=O)[C@@H](N1C(=O)c2ccccc2C1=O)C1(C)CC(Cl)=NO1 (some centres undefined): > 100 µM (inactive)
COC1(OC)CCC2(C)OC(c3ccccc3)C1O2 (centres undefined): > 100 µM (inactive)
CC(C)=CCc1c(O)ccc2c1OC1c3ccc(O)c(CC=C(C)C)c3OCC21 (centres undefined): 13.6 µM (inactive)
CC1(C)[C@@H]2CC[C@@]1(C)[C@H](O)[C@@H]2SCc1ccccc1: 17.1 µM (inactive)
CC(C)(C)c1ccc(CN2CCN(C(c3ccccc3)c3ccc(Cl)cc3)CC2)cc1 (centres undefined): 58.7 µM (inactive)

Entry CSC(SC)=C1C(=O)NN=C1C — recorded GI50 = > 100 µM (inactive)

Entry CC1=CC(=O)N(n2c(C)n[nH]c2=O)C1=O — recorded GI50 = > 100 µM (inactive)

Entry CCOC(=O)/C(=C\c1ccc(OCc2ccccc2)c(OC)c1)C(=O)c1ccccc1 — recorded GI50 = 22 µM (inactive)

Entry COc1cccc(-c2nc(O)c3ccccc3n2)c1 — recorded GI50 = 21.2 µM (inactive)

Entry N#C/C(=C/NC(=S)NCc1ccccc1)C(N)=O — recorded GI50 = 0.063 µM (active)

Entry CC(=O)c1ccc(NC(=O)/C(CC(=O)c2sc(-c3cccnc3)nc2C)=N/NC(N)=O)cc1 — recorded GI50 = > 100 µM (inactive)

Entry COc1ccc(S(=O)(=O)c2ccccc2[N+](=O)[O-])cc1 — recorded GI50 = 98.6 µM (inactive)

Entry CC(CO)CCNc1ncnc2c1ncn2CCC(=O)O (centres undefined) — recorded GI50 = > 100 µM (inactive)
